System: Rattus norvegicus
Assay: Dose normalized total AUC in rat at 2 mg/kg, po
Assay type: ADME, organism-based
Conditions: in vivo
Exercise: for every item that follows, state its recorded AUC/dose.

Looking for the measured AUC/dose of `C[C@@H](C(=O)Nc1ccc(C[C@@H]2CC[C@H]([C@H](O)c3ccccc3)N2)cc1)n1ncccc1=O` , can you help? 100 nM·h/mg/kg

Looking for the measured AUC/dose of `O=C(Cn1cccnc1=O)Nc1ccc(C[C@@H]2CC[C@H]([C@H](O)c3ccccc3)N2)cc1` , can you help? 24 nM·h/mg/kg

Looking for the measured AUC/dose of `O=C(Nc1ccc(C[C@@H]2CC[C@H]([C@H](O)c3ccccc3)N2)cc1)[C@@H]1CCc2cccc(=O)n21` , can you help? 110 nM·h/mg/kg

Looking for the measured AUC/dose of `O=C(Cn1ncccc1=O)Nc1ccc(C[C@@H]2CC[C@H]([C@H](O)c3ccccc3)N2)cc1` , can you help? 66 nM·h/mg/kg

Looking for the measured AUC/dose of O=C(Nc1ccc(C[C@@H]2CC[C@H]([C@H](O)c3ccccc3)N2)cc1)[C@@H]1CCc2nccc(=O)n21 [VIBEGRON] , can you help? 540 nM·h/mg/kg

Looking for the measured AUC/dose of `O=S(=O)(Nc1ccc(CCNC[C@H](O)c2cccnc2)cc1)c1ccc(-c2nc(-c3ccc(C(F)(F)F)cc3)cs2)cc1` , can you help? 70 nM·h/mg/kg
